# Tested on: SEM cells
# EXPERIMENT_DESCRIPTION: cell viability relative to DMSO control; higher = less cytotoxic
# CONDITION_DETAILS: HPLM + 10% dialyzed FBS; 48 h; 0.00702 µM
MEASUREMENT_TYPE: cell viability (%)
Answer format: numeric, % implied, no suffix.

Consider the following illustrative entries.
1) CCC(C)CCCCC(=O)N[C@@H](CCN)C(=O)NC(C(=O)N[C@H](CCN)C(=O)N[C@@H]1CCNC(=O)C([C@@H](C)O)NC(=O)[C@@H](CCN)NC(=O)[C@@H](CCN)NC(=O)[C@@H](CC(C)C)NC(=O)[C@H](Cc2ccccc2)NC(=O)[C@H](CCN)NC1=O)[C@@H](C)O (stereo partly specified) : 94
2) O=C(c1cncc(Br)c1)N1CCC(N2CCCC2)CC1 : 107
3) CO[C@H]1/C=C/O[C@@]2(C)Oc3c(C)c(O)c4c(c3C2=O)C2=NC3(CCN(CC(C)C)CC3)NC2=C(NC(=O)/C(C)=C/C=C/[C@H](C)[C@H](O)[C@@H](C)[C@@H](O)[C@@H](C)[C@H](OC(C)=O)[C@@H]1C)C4=O : 103

What measured cell viability goes with CCN(CC)CCNC(=O)c1c(C)[nH]c(/C=C2\C(=O)Nc3ccc(F)cc32)c1C ?
43.4

Param item = CN1CC[C@H]([C@@H](O)C1)C2=C(O)C=C(O)C3=C2O\C(=C/C3=O)C4=CC=CC=C4Cl ; retrieve measured cell viability.
134

Which cell viability reading was recorded for the compound CCNC(=O)CCC/C=C\C[C@@H]1[C@@H](/C=C/C(O)CCc2ccccc2)[C@@H](O)C[C@@H]1O (stereo partly specified) ?
100

----------
# System: SEM cells
# EXPERIMENT_DESCRIPTION: cell viability relative to DMSO control; higher = less cytotoxic
# CONDITION_DETAILS: HPLM + 10% dialyzed FBS; 48 h; 15.4 µM
MEASUREMENT_TYPE: cell viability (%)
The reply should be a number in %, with the unit left off.

1. C[C@]1(O)CC(C1)C2=NC(=C3[N]2C=CN=C3N)C4=CC5=C(C=C4)C=CC(=N5)C6=CC=CC=C6 (configuration not stated) : 3.17

Looking for the measured cell viability of NC1=NC(=O)N2CC12 (configuration not stated) , can you help?
3.13

Which cell viability value belongs to COc1cc(NCc2ccc3nc(N)nc(N)c3c2C)cc(OC)c1OC ?
32.5

Find the recorded cell viability belonging to NC(=O)c1cnccn1 and report it.
122

So what does the record say about cell viability for CN1CC[C@H]([C@@H](O)C1)C2=C(O)C=C(O)C3=C2O\C(=C/C3=O)C4=CC=CC=C4Cl ?
5.22

Fill blank: measured cell viability of the compound O=C(O)c1cc(O)c2c(c1)C(=O)c1cccc(O)c1C2=O is ____.
92.9

# query: cell viability of entry CC1(COc2ccc3c(c2)ncn3-c2ccc3cccc(N4CCC(N)CC4)c3n2)COC1
28.7

----------
Documented cell viability across a set of compounds
# Tested on: SEM cells
# EXPERIMENT_DESCRIPTION: cell viability relative to DMSO control; higher = less cytotoxic
# CONDITION_DETAILS: HPLM + 10% dialyzed FBS; 48 h; 15.4 µM
API: value field is a number in %; no unit string.

Some compounds with known cell viability results, for comparison:
1. Cc1cn2cc(C(=O)N(C)CCO)cc(N[C@@H]3CCOc4cccc(C)c43)c2n1 : 113
2. Cc1ccc(C(=O)Nc2cccc(C(F)(F)F)c2)cc1Nc1nc(-c2cccnc2)nc2c1cnn2C : 59
3. CCN(CC)CCNC(=O)c1c(C)[nH]c(/C=C2\C(=O)Nc3ccc(F)cc32)c1C : 4.36

Look at this compound and give its reported cell viability. C[C@H](NC(=O)Cc1cc(F)cc(F)c1)C(=O)N[C@H](C(=O)OC(C)(C)C)c1ccccc1
87.9

Could you tell me which cell viability is on file for OC1=CC=C(C=C1)C/2=C/C3=C(OC2)C=C(O)C=C3 ?
2.3

Field request: cell viability | item: Cc1cc(Nc2cc(N3CCN(C)CC3)nc(/C=C/c3ccccc3)n2)n[nH]1
4.53

----------
# Tested on: SEM cells
# EXPERIMENT_DESCRIPTION: cell viability relative to DMSO control; higher = less cytotoxic
# CONDITION_DETAILS: RPMI 5 mM glucose + 10% FBS; 48 h; 15.4 µM
MEASUREMENT_TYPE: cell viability (%)
Give a bare numeral; the unit % is implied.

Here are 4 compounds together with their reported answers.
1) COc1cc2c(cc1OC)[C@@H]1Cc3ccc(OC)c(OC)c3CN1CC2 : 102
2) NC(=O)N/N=C/c1ccc([N+](=O)[O-])o1 : 161
3) Cc1ccc2nc(NCCN)c3ncc(C)n3c2c1 : 86.4
4) COCCn1c2c([n+](Cc3cnccn3)c1C)C(=O)c1ccccc1C2=O : 4.16

Here is the next item to consider.
Please give the measured cell viability for this compound: COc1ccc(F)c(F)c1C(=O)c1cnc(NC2CCN([S+](C)(=O)[O-])CC2)nc1N
3.24

----------
# Tested on: P12-Ichikawa
# EXPERIMENT_DESCRIPTION: cell viability relative to DMSO control; higher = less cytotoxic
# CONDITION_DETAILS: RPMI 5 mM glucose + 10% FBS; 48 h; 15.4 µM
cell viability: recorded values
The reply should be a number in %, with the unit left off.

1. CN1C(=O)/C(=C(NC2=CC=C(I)C=C2F)\C3=C1\N=C/N(C[C@@H](O)CO)C3=O)F : 68.9

Consider the compound Oc1ccc(OCc2ccccc2)cc1 and give its measured cell viability.
68.4

Requested field: cell viability. Item: CC(=O)N(C)C1(c2ccccc2)CCN(CCC[C@]2(c3ccc(Cl)c(Cl)c3)CCCN(C(=O)c3ccccc3)C2)CC1
41.1

----------
# Test system: SEM cells
# EXPERIMENT_DESCRIPTION: cell viability relative to DMSO control; higher = less cytotoxic
# CONDITION_DETAILS: RPMI 5 mM glucose + 10% FBS; 48 h; 0.00702 µM
MEASUREMENT_TYPE: cell viability (%)
# value in %; strip the unit string

Below are worked cases with known answers.
1. CCOC(=O)c1c(C)n(C)c2ccc(O)cc12 : 107
2. C[C@H](CCC(=O)O)[C@H]1CC[C@H]2[C@@H]3[C@H](O)C[C@@H]4C[C@H](O)CC[C@]4(C)[C@H]3CC[C@]12C : 90.3
3. COc1cc2c(cc1OC)[C@@H]1Cc3ccc(OC)c(OC)c3CN1CC2 : 103
4. Cc1cc(Nc2cc(N3CCN(C)CC3)nc(/C=C/c3ccccc3)n2)n[nH]1 : 94.1
5. CNc1nc(-c2ccc3c(N)n[nH]c3c2)cc(N2C[C@@H](C(=O)NC3CCCCC3)CC[C@H]2C)n1 : 102

Query (molecule): Nc1ccc(C(=O)Nc2cccc(-c3nc(N4CCOCC4)c4oc5ncccc5c4n3)c2)cn1 ; field requested: cell viability
71.8

Quick one: cell viability for Nc1n[nH]c2nnc(-c3c(-c4ccccc4)nn4ccccc34)cc12 ?
107

I'd like to know its cell viability. The molecule in question is CN1CCc2c(c3ccccc3n2Cc2ccc(C(=O)NO)cc2)C1
88.5

What value of measured cell viability is listed for CCc1ccc(OCc2ccccc2C(=O)Nc2ccc3nc(C)cc(N)c3c2)cc1 ?
98.9

----------
Listed here are molecules together with their documented AUC of viability dose-response curve.
# Tested on: SEM cells
# EXPERIMENT_DESCRIPTION: AUC of viability dose-response curve (% viability x log10 dose units); higher = less sensitive
# CONDITION_DETAILS: RPMI 5 mM glucose + 10% dialyzed FBS; 48 h
API doc: respond with a numeric literal and nothing else, no unit.

As a guide, the following entries are already answered.
1. c1ccc(CNc2nc(NCc3ccccc3)c3ccccc3n2)cc1 : 470
2. CCOC(=O)N1CCN(/[N+]([O-])=N/Oc2cc(O/N=[N+](\[O-])N3CCN(C(=O)OCC)CC3)c([N+](=O)[O-])cc2[N+](=O)[O-])CC1 : 474
3. O=C(O)CCCCCC(=O)NN=C1CCCC1 : 461
4. CN1C(=O)c2sccc2N(C)c2nc(Nc3ccc([S+](N)(=O)[O-])cc3)ncc21 : 348
5. CCCCCCNC(=O)N1\C=C(F)/C(=O)NC1=O : 435

What AUC of viability dose-response curve value was documented for this molecule, Cc1ccc([C@@H]2O[C@H](CO)[C@@H](O)[C@H](O)[C@H]2O)cc1Cc1ccc(-c2ccc(F)cc2)s1 ?
468

Request the reported AUC of viability dose-response curve associated with Clc2cccc(Cl)c2\N=C1/NCCN1
429

Looking for the measured AUC of viability dose-response curve of COc1ccc(/C=C\c2cc(OC)c(OC)c(OC)c2)cc1NC(=O)[C@H](N)CO , can you help?
186

Give the measured AUC of viability dose-response curve of N[S+](=O)([O-])c1ccc(Nc2nc(OCC3CCCCC3)c3[nH]cnc3n2)cc1 .
298

Looking for the measured AUC of viability dose-response curve of O=C(O)c1cc(O)c2c(c1)C(=O)c1cccc(O)c1C2=O , can you help?
464

# input molecule: C[C@H](NC(=O)Cc1cc(F)cc(F)c1)C(=O)N[C@H](C(=O)OC(C)(C)C)c1ccccc1 ; wanted: its AUC of viability dose-response curve
415

Field request: AUC of viability dose-response curve | item: Cc1nc(-c2ccc(OCC(C)C)c(C#N)c2)sc1C(=O)O
458
